# measuredOn: cloned human 5-HT1A receptors (Homo sapiens, UniProt P08908)
# Construct: expressed in transfected cells
# assayName: 35S-GTPγS binding assay, antagonist activity at 5-HT1A receptors
# Type: biochemical
# statedConditions: reversal of the effects of the standard agonist 8-OHDPAT
reportedProperty: 5-HT1A Function Imax (maximum inhibitory effect)
Lab note: jot the number down without any unit.

Below: 2 compounds and their reported 5-HT1A Function Imax (maximum inhibitory effect).
INSERT INTO results (compound, measuredon, assayvalue) VALUES
  ('C1=C(c2c[nH]c3ccccc23)CCN(CC2COc3ccc4ncoc4c3O2)C1 (stereo not shown) [Example 1]', 'cloned human 5-HT1A receptors (Homo sapiens, UniProt P08908)', 45),
  ('Cc1nc2ccc3c(c2o1)OC(CN1CC=C(c2c[nH]c4ccc(F)cc24)CC1)CO3 (stereo not shown) [Example 2]', 'cloned human 5-HT1A receptors (Homo sapiens, UniProt P08908)', 100);

Any idea what 5-HT1A Function Imax (maximum inhibitory effect) was measured for Cc1nc2ccc3c(c2o1)OC(CN1CC=C(c2c[nH]c4ccc(C#N)cc24)CC1)CO3 (stereo not shown) [Example 4] ?
100

And for Cc1nc2ccc3c(c2o1)OC(CN1CC=C(c2c[nH]c4ccccc24)CC1)CO3 (stereo not shown) [Example 3] ?
100

---

Parameter pKi, tested on serotonin transporter (Rattus norvegicus, UniProt P31652), listed per item.
Sequence (P31652 whole entry): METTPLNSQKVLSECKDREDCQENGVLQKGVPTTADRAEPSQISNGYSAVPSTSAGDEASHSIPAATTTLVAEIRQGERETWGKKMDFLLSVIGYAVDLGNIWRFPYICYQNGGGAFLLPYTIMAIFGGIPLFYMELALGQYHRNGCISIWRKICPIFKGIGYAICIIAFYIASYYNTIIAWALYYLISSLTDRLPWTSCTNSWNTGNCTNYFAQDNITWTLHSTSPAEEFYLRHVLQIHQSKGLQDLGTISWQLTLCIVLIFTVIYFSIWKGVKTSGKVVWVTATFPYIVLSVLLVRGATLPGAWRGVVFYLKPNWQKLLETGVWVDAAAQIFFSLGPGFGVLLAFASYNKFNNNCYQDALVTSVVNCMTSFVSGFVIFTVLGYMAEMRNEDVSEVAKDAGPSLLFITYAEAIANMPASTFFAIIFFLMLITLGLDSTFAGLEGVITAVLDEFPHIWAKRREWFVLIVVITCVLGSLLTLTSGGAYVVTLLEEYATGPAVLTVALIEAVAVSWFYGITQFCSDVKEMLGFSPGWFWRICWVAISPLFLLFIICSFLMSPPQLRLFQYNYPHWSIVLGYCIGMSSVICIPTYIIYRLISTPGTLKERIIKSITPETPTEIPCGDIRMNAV
// returns pKi (minus log10 of molar concentration), number only

Solved cases below.
INSERT INTO results (compound, reportedproperty, assayvalue) VALUES
  ('Cc1nc2ccc3c(c2o1)OC(CN1CC=C(c2c[nH]c4ccccc24)CC1)CO3 (stereo not shown)', 'pKi', 8.42),
  ('C1=C(c2c[nH]c3ccccc23)CCN(CC2COc3ccc4ncoc4c3O2)C1 (stereo not shown)', 'pKi', 8.40),
  ('Cc1nc2ccc3c(c2o1)OC(CN1CC=C(c2c[nH]c4ccc(F)cc24)CC1)CO3 (stereo not shown)', 'pKi', 8.65);

Consider the additional compound presented here.
Recorded pKi of Cc1nc2ccc3c(c2o1)OC(CN1CC=C(c2c[nH]c4ccc(C#N)cc24)CC1)CO3 (stereo not shown) , please.
8.77

---

Counter-ions that a name gives are not always drawn.
reportedProperty: melting point (°C)
Give the value in °C but do not write °C after it.

Example cases with answers are listed next.
INSERT INTO measurements (compound, measurementunits, assayvalue) VALUES
  ('Cc1nc2ccc3c(c2o1)OC(CN1CC=C(c2c[nH]c4ccccc24)CC1)CO3 (stereo not drawn)', '°C', 196),
  ('Cc1nc2ccc3c(c2o1)OC(CN1CC=C(c2c[nH]c4ccc(C#N)cc24)CC1)CO3 (stereo not drawn) (as salt: fumarate) (hydrate or solvate)', '°C', 119);

# query: melting point of entry Cc1nc2ccc3c(c2o1)OC(CN1CC=C(c2c[nH]c4ccc(F)cc24)CC1)CO3 (stereo not drawn)
95

---

# reported pKi; entries follow
# measuredOn: human 5-HT1A receptors (Homo sapiens, UniProt P08908)
# assayName: [3H] 8-OHDPAT displacement from the 5-HT1A receptor in transfected CHO cells
Just the number, please; pKi means minus log10 of the concentration in mol/L.

INSERT INTO results (compound, assayvalue) VALUES
  ('Cc1nc2ccc3c(c2o1)OC(CN1CC=C(c2c[nH]c4ccc(F)cc24)CC1)CO3 (stereo not shown) [Example 2]', 8.27),
  ('Cc1nc2ccc3c(c2o1)OC(CN1CC=C(c2c[nH]c4ccccc24)CC1)CO3 (stereo not shown) [Example 3]', 8.12),
  ('C1=C(c2c[nH]c3ccccc23)CCN(CC2COc3ccc4ncoc4c3O2)C1 (stereo not shown) [Example 1]', 7.99);

pKi for Cc1nc2ccc3c(c2o1)OC(CN1CC=C(c2c[nH]c4ccc(C#N)cc24)CC1)CO3 (stereo not shown) [Example 4] ?
8.02

---

Collected IC50 values appear next to each entry.
# measuredOn: cloned human 5-HT1A receptors (Homo sapiens)
# Construct: expressed in transfected cells
# Sequence (P08908 1-422): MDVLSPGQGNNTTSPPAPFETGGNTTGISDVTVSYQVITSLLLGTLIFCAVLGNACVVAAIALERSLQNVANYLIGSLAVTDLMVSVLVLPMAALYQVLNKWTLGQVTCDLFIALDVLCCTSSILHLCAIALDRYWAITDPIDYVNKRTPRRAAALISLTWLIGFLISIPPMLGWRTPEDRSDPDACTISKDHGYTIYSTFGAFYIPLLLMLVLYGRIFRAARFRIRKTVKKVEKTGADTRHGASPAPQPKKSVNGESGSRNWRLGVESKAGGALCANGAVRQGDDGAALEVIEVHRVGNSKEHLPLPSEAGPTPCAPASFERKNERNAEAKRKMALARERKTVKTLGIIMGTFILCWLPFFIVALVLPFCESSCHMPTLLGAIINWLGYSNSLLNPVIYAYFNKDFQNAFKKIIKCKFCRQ
# assayName: 35S-GTPγS binding assay, antagonist activity at 5-HT1A receptors
# Assay type: biochemical
# statedConditions: reversal of the effects of the standard agonist 8-OHDPAT, read-out: 5-HT1A Function IC50
// return numeric value only (unit: nM, not printed)

INSERT INTO measurements (molecule, reportedproperty, measurementunits, assayvalue) VALUES
  ('Cc1nc2ccc3c(c2o1)OC(CN1CC=C(c2c[nH]c4ccc(F)cc24)CC1)CO3 (stereo not shown) [Example 2]', 'IC50', 'nM', 180);

What value of measured IC50 is listed for Cc1nc2ccc3c(c2o1)OC(CN1CC=C(c2c[nH]c4ccccc24)CC1)CO3 (stereo not shown) [Example 3] ?
282

Would you mind doing Cc1nc2ccc3c(c2o1)OC(CN1CC=C(c2c[nH]c4ccc(C#N)cc24)CC1)CO3 (stereo not shown) [Example 4] as well?
115

Item: C1=C(c2c[nH]c3ccccc23)CCN(CC2COc3ccc4ncoc4c3O2)C1 (stereo not shown) [Example 1]
334

---

Recorded melting point for the following compounds

INSERT INTO results (compound, reportedproperty, assayvalue) VALUES
  ('Cc1nc2ccc3c(c2o1)OC(CN1CC=C(c2c[nH]c4cc(F)ccc24)CC1)CO3 (stereo not drawn)', 'melting point', '188 to 190 °C'),
  ('Cc1nc2ccc3c(c2o1)OC(CN1CC=C(c2c[nH]c4c(F)cccc24)CC1)CO3 (stereo not drawn)', 'melting point', '208 to 210 °C');

Continue with the next compound.
Look up melting point: C1=C(c2c[nH]c3ccccc23)CCN(CC2COc3ccc4ncoc4c3O2)C1 (stereo not drawn) [Example 1]
223 to 224 °C
